Data origin, for the record: PubChem BioAssay

assay: growth of efflux-deficient E. coli DRC39 – strain DRC39, OD650, 24 h, E. coli filamentation inducers, primary screen (AID 1178);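 note: growth measured as culture turbidity by optical density at 650 nm; test concentration not given here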; settings: E. coli DRC39 acrAB, higher = more signal, called active from +8 up or from −8 down
The compounds listed here are annotated with their z-score.
Please reply with the number alone, leaving off any unit.

Solved cases (3 shown):
>  <Compound>
CCOc1cc(C(O)C2C=CC3C(=O)N(c4ccccc4)C(=O)C3N2Nc2ccc(C(C)C)cc2)ccc1O (stereo not drawn)

>  <Readout label>
z-score

>  <Experimental value>
-0.361

$$$$
>  <Compound>
O=C(CS)NCCCCCNC(=O)[C@H]1C[C@H]2C(=O)NCC(=O)N2[C@H]1c1cccc(OCCO)c1

>  <Readout label>
z-score

>  <Experimental value>
0.325

$$$$
>  <Compound>
O=C1C2C=CC(C(O)c3ccc(-c4ccccc4)s3)N(Nc3ccccc3)C2C(=O)N1c1ccccc1 (stereo not drawn)

>  <Readout label>
z-score

>  <Experimental value>
-0.172

$$$$

Consider the additional compound presented here.
Input line: Fill blank: measured z-score of the compound O=C(NCCN1CCOCC1)[C@@H]1c2ccccc2C(=O)N(Cc2cc(C(F)(F)F)cc(C(F)(F)F)c2)[C@H]1c1ccc(CO)cc1 is ____.
Output line: 1.06

---

target: Dihydroorotate dehydrogenase (quinone), mitochondrial (Plasmodium falciparum (isolate 3D7)) (UniProt Q08210); assay: inhibition of P. falciparum DHODH – biochemical, C-terminal His tag, absorbance 600 nm, primary screen (AID 1175); conditions: PfDHODH enzyme, DCIP absorbance 600 nm, called active from +8 up or from −8 down;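 note: recombinant parasite enzyme with a five histidine tag at its C terminus; test concentration not given here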
Sequence (Q08210 whole entry, looked up): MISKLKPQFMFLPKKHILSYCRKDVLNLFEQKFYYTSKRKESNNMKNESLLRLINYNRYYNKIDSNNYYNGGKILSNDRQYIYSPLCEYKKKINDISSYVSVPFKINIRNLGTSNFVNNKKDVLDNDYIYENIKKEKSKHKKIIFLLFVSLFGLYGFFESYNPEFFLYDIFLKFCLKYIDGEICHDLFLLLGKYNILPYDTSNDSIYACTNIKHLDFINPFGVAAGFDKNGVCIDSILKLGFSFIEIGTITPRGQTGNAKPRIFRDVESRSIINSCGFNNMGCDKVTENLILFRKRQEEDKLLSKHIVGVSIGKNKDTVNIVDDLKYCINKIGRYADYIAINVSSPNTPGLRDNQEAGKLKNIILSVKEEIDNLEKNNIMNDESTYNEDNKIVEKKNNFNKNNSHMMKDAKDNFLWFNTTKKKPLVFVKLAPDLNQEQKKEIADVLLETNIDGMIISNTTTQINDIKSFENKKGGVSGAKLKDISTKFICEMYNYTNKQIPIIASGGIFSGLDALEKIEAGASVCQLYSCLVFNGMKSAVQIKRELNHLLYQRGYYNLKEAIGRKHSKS
Active and inactive are the calls of the source.
# valid calls are active, inactive; nothing else

>  <Compound>
O=C1O[C@@H](c2ccccc2)[C@@H](c2ccccc2)N2[C@@H](c3ccccc3OCCO)[C@]3(C(=O)Nc4ccc(C#CC5(O)CCCCCC5)cc43)[C@@H](C(=O)N3CCN(c4ncccn4)CC3)[C@H]12

>  <Category>
inactive

$$$$
>  <Compound>
C=C(CCCC)C(=O)CC[C@@H](OC(C)=O)c1ccc(CO)o1

>  <Category>
active

$$$$
>  <Compound>
CCOc1ccc(N2C(=O)CSC2c2cccc([N+](=O)[O-])c2)cc1 (stereo not drawn)

>  <Category>
inactive

$$$$

Now turn to the next compound.
Input line: Outcome? CCCCCN1CC=CC23O[C@@H]4C=CCOC(=O)[C@@H]4[C@H]2C(=O)N(C(C)CO)[C@@H]3C1=O (stereo partly drawn)
Output line: inactive

---

target: Torsin-1A-interacting protein 1 (Homo sapiens) (UniProt Q5JTV8); test: compound microarray binding of lysate hLAP1 – cell lysate, small-molecule microarray, COS7 lysate, 635/667 nm fluorescence, primary screen (AID 1116); details: 635 nm fluorescence, higher = more signal
Sequence (Q5JTV8 whole entry, looked up): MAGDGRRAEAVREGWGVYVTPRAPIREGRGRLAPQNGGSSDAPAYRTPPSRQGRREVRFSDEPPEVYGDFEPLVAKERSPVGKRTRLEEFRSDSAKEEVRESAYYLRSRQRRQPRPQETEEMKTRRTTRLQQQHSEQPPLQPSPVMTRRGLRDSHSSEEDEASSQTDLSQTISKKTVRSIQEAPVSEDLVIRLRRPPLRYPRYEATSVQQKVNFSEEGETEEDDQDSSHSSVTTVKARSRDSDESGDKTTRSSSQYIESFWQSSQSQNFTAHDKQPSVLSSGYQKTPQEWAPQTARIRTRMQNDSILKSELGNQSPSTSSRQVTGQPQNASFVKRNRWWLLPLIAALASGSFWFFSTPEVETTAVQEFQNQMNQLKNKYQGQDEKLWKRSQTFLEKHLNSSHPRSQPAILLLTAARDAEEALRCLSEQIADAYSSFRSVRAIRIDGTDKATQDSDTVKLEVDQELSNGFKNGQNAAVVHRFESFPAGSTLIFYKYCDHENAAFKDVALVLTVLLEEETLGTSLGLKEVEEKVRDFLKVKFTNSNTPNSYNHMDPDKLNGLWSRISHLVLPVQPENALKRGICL
The compounds listed here are annotated with their composite z-score.

>  <Compound>
COc1cc(CO)cc(I)c1O[C@H]1C=C(C(=O)NCCO)C[C@@H](N(C(=O)c2cc3ccccc3oc2=O)C2CCCCCC2)[C@@H]1O

>  <composite z-score>
0.155

$$$$
>  <Compound>
O=C1O[C@H](c2ccccc2)[C@H](c2ccccc2)N2[C@H]1[C@@H](C(=O)N1CCN(c3ncccn3)CC1)[C@]1(C(=O)Nc3ccc(C#CC4=CCCCC4)cc31)[C@H]2c1ccccc1OCCO

>  <composite z-score>
0.201

$$$$
>  <Compound>
CC(c1ccccc1)C(O)C1C=CC2C(=O)N(c3ccccc3)C(=O)C2N1Nc1ccccc1 (stereo not given)

>  <composite z-score>
1.11

$$$$
>  <Compound>
O=C1O[C@@H](c2ccccc2)[C@@H](c2ccccc2)N2[C@@H](c3ccc(OCCO)cc3)[C@]3(C(=O)Nc4ccc(C#CCCO)cc43)[C@@H](C(=O)NC[C@H](O)c3ccccc3)[C@H]12

>  <composite z-score>
1.09

$$$$
>  <Compound>
COC(=O)[C@@]1(Cc2ccc(OC)cc2)[C@H]2c3cc(C(=O)N4CCCC4)n(CCCNc4ncc(C(F)(F)F)cc4Cl)c3C[C@H]2CN1C(=O)c1ccccc1

>  <composite z-score>
-0.0323

$$$$
>  <Compound>
O=C1C2C=CC(C(O)c3c(F)cccc3Cl)N(Nc3ccccc3F)C2C(=O)N1c1ccccc1 (stereo not given)

>  <composite z-score>
1.43

$$$$
>  <Compound>
Cc1ccc(S[C@]2(C(=O)NCC(C)C)CC(=O)N(Cc3cc(C(F)(F)F)cc(C(F)(F)F)c3)[C@@H]2c2ccc(CO)cc2)cc1

>  <composite z-score>
0.489

$$$$
>  <Compound>
COC(=O)c1c2oc(c1C(=O)OC)C(=O)N[C@@H](C(C)C)Cn1cc(nn1)C1(CCCCC1)NC(=O)N[C@H](CO)CC2

>  <composite z-score>
0.764

$$$$

Input line: Query: composite z-score; subject: C#CCN(C/C=C/c1ccccc1)[C@H](CO)c1ccccc1
Output line: -0.0349

Input line: Sample COc1ccc(C(O)C2C=CC3C(=O)N(C)C(=O)C3N2NC(=O)OC(C)(C)C)c2ccccc12 (stereo not given) — what was its composite z-score?
Output line: 0.163
